These records show IC50 for ROCK2 (Homo sapiens (Human)).

Worked examples, 4 compounds total:
INSERT INTO results (compound, property, result) VALUES
  ('COC(=O)N1CC2(C1)CN(c1ccc(-c3cn[nH]c3)cc1)C(=O)C2Nc1cccc(OC)c1 (stereo not shown) [Example 248]', 'IC50', '250 to 3000 nM'),
  ('Cc1c(F)cccc1CN1C(=O)N(c2ccc(-c3cn[nH]c3)cc2)CC12CCN(C(=O)C1(C)COC1)CC2 [Example 189]', 'IC50', '3 to 30 nM'),
  ('COc1cccc(NC2C(=O)N(c3ncc(-c4cn[nH]c4)c(OC)n3)CC23CCN(C(=O)c2cnn4ccccc24)CC3)c1 (stereo not shown) [Example 243]', 'IC50', '250 to 3000 nM'),
  ('COc1cccc(CN2C(=O)N(c3ccc(-c4cn[nH]c4)c(OC)n3)CC23CCN(C(C)=O)CC3)c1 [Example 85]', 'IC50', '< 3 nM');

Below are 2 compounds. Give each one its IC50.
1. Cc1c(F)cccc1CN1C(=O)N(c2ccc(-c3cn[nH]c3)cc2)CC12CCN(C(=O)OC(C)(C)C)CC2 [Example 49]
2. COc1cccc(CN2C(=O)N(c3ccc(-c4cn[nH]c4)c(OC)n3)CC23CCN(CC(C)(C)O)CC3)c1 [Example 148]

result:
["3 to 30 nM", "< 3 nM"]

Below are 8 compounds. Give each one its IC50.
1. COc1cccc(CN2C(=O)N(c3ccc(-c4cn[nH]c4)cc3)CC23CCN(C(=O)[C@@H](C)O)CC3)c1 [Example 178]
2. COc1cccc(CN2C(=O)N(c3ccc(-c4cn[nH]c4)cc3)CC23CCN(C(=O)C2CCCC2)CC3)c1 [Example 174]
3. O=C(NCC1CC1)c1cccc(CN2C(=O)N(c3ccc(-c4cn[nH]c4)cc3)CC23CCOCC3)c1 [Example 37]
4. COc1cccc(CN2C(=O)N(c3ccc(-c4cn[nH]c4)c(OC)n3)CC23CCN(CC(F)F)CC3)c1 [Example 135]
5. COCC(=O)N1CCC2(CC1)CN(c1ccc(-c3cn[nH]c3)cn1)C(=O)N2Cc1cccc(OC)c1 [Example 197]
6. CCc1nc(N2CC3(CCN(C(=O)C4CC(F)(F)C4)CC3)N(Cc3cccc(OC)c3)C2=O)ccc1-c1cn[nH]c1 [Example 202]
7. COc1cccc(CN2C(=O)N(c3ccc(-c4cn[nH]c4)cc3)CC23CCN(CC(C)O)CC3)c1 (single isomer, unassigned) [Example 140]
8. COc1nc(N2CC3(CCN(CC(F)F)CC3)N(Cc3cccc(F)c3C)C2=O)ccc1-c1cn[nH]c1 [Example 137]

result:
< 3 nM
< 3 nM
< 3 nM
< 3 nM
3 to 30 nM
< 3 nM
< 3 nM
< 3 nM

Below are 8 compounds. Give each one its IC50.
1. CCc1nc(N2CC3(CCN(C(=O)C(C)(C)O)CC3)N(Cc3cc(F)cc(OC)c3)C2=O)ccc1-c1cn[nH]c1 [Example 187]
2. COc1nc(N2CC3(CCN(C4COC4)CC3)N(Cc3cccc(F)c3C)C2=O)ccc1-c1cn[nH]c1 [Example 239]
3. CCc1nc(N2CC3(CCN(CC(C)O)CC3)N(Cc3cc(F)cc(OC)c3)C2=O)ccc1-c1cn[nH]c1 (stereo not shown) [Example 154]
4. COCC(=O)N1CCC2(CC1)CN(c1ccc(-c3cn[nH]c3)c(OC)n1)C(=O)N2Cc1cccc(F)c1C [Example 226]
5. O=C1N(c2ccc(-c3cn[nH]c3)cc2)CC2(CCOCC2)N1Cc1ccccc1F [Example 12]
6. O=C1N(c2ccc(-c3cn[nH]c3)cc2)CC2(CCNCC2)N1CC1CCOCC1 [Example 72]
7. COc1cc(CN2C(=O)N(c3ccc(-c4cn[nH]c4)cc3)CC23CC3)ccc1F [Example 6]
8. CCc1nc(N2CC3(CCN(CC(C)O)CC3)N(Cc3cccc(F)c3C)C2=O)ccc1-c1cn[nH]c1 (stereo not shown) [Example 156]

result:
< 3 nM
< 3 nM
< 3 nM
< 3 nM
30 to 250 nM
250 to 3000 nM
< 3 nM
< 3 nM

----------
These records show pIC50 for ROCK2 (Homo sapiens (Human), UniProt O75116).
pIC50: −log10 of the molar value.

INSERT INTO assay_data (smiles_entry, result) VALUES
  ('O=C1N(c2ccc(-c3cn[nH]c3)cc2)CC2(CCOCC2)N1Cc1ccc(Cl)c(Cl)c1', '6.60 to 7.52'),
  ('COc1cccc(CN2C(=O)N(c3ccc(-c4cn[nH]c4)c(C)n3)CC23CCN(C(=O)OC(C)(C)C)CC3)c1', '6.60 to 7.52');

query: Look up and report measured pIC50 for this entry: Cc1cc(F)ccc1CN1C(=O)N(c2ccc(-c3cn[nH]c3)cc2)CC12CCOCC2
result: 6.60 to 7.52

----------
Counter-ions that a name gives are not always drawn.
These records show IC50 for ROCK2 (Homo sapiens (Human), UniProt O75116).

Worked examples, 5 molecules total:
INSERT INTO assay_data (molecule, result) VALUES
  ('COc1cccc(CN2C(=O)N(c3ccc(-c4cn[nH]c4)cc3)CC23CC[N+]([O-])(CCO)CC3)c1 (stereo not drawn) [Example 145]', '< 3 nM'),
  ('CCc1cc(N2CC3(CC3)N(Cc3cccc(OC)c3)C2=O)ccc1-c1cn[nH]c1 [Example 5]', '< 3 nM'),
  ('O=C1N(c2ccc(-c3cn[nH]c3)cc2)CC2(CCNCC2)N1Cc1cccc(OCC2CC2)c1 [Example 60, TFA]', '3 to 30 nM'),
  ('COc1cccc(CN2C(=O)N(c3ncc(-c4cn[nH]c4)c(OC)n3)CC23CCN(CCC(F)(F)F)CC3)c1 [Example 134]', '30 to 250 nM'),
  ('CCc1nc(N2CC3(CCN(C(=O)C(C)(C)O)CC3)N(Cc3cccc(OC)c3)C2=O)ccc1-c1cn[nH]c1 [Example 205]', '3 to 30 nM');

query: Look up and report measured IC50 for this entry: COc1cc(F)cc(CN2C(=O)N(c3ccc(-c4cn[nH]c4)cc3)CC23CC3)c1 [Example 8]
result: < 3 nM
